Assay: binders of r(CAG) RNA repeats, primary screen, biochemical, fluorescence (AID 651821);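 note: 0% = DMSO alone and 100% = 100 µM mitoxantrone as full dye displacement; higher means more dye released from RNA so lower well fluorescence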
Settings: r(CAG) RNA repeat, TO-PRO-1 dye displacement fluorescence; at 3 µM
In all, about 370,000 compounds went through this assay and about 4,700 (1.3%) were called active.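 Rule for the calls: active = inhibition above the plate cutoff, the mean of all test compounds on that plate plus 3 SD (cut at about 35% in these data); inactive = the rest.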 What follows is part of a selection rich in actives, with near analogues and random picks from the rest.
A correct response names exactly one class from class 1 = active, class 0 = inactive

Reference set, count: 8
1) C[C@H](CO)N1C[C@H](C)[C@@H](CN(C)C(=O)Nc2ccccc2F)OCc2cn(nn2)CCCC1=O	class 0
2) O=C(Nc1nncs1)c1cccc(S(=O)(=O)N2CCCCC2)c1	class 0
3) C/C(=N\NC(=O)c1ccc(NS(=O)(=O)c2cccs2)cc1)c1ccc2ccccc2c1	class 0
4) COc1ccc(Cn2cc(CN3[C@@H](CC(C)C)COc4cc(Br)ccc4S3(=O)=O)nn2)cc1	class 0
5) Cc1cc(NCCc2c[nH]c3ccccc23)ccc1Oc1cccnc1	class 0
6) CCn1cc(CN2CCCC(CNS(=O)(=O)Cc3ccccc3)C2)cn1 (stereo not given)	class 0
7) Cc1ccc(N=C2NC(=O)/C(=C/C=C/c3ccco3)S2)cc1C	class 1
8) O=C(Nc1nncs1)c1ccccc1NS(=O)(=O)c1cccs1	class 1

In: Outcome logged for O=C(NC1CCCC1)C1CSCCS(=O)(=O)N1Cc1ccccc1 (stereo not given) in this assay:
Out: class 0

In: Outcome logged for `O=C(NCc1ccccc1)[C@@H]1CCCN1C(=O)[C@@H](NS(=O)(=O)c1ccc(F)cc1F)C1CCCCC1` in this assay:
Out: class 0
